Catalogue of Emax values
Biological target: OGA (Homo sapiens)
Construct: endogenous in cells; host or cells: HEK293 cells inducible for P301L mutant human Tau (2N4R)
Sequence (O60502 1-916): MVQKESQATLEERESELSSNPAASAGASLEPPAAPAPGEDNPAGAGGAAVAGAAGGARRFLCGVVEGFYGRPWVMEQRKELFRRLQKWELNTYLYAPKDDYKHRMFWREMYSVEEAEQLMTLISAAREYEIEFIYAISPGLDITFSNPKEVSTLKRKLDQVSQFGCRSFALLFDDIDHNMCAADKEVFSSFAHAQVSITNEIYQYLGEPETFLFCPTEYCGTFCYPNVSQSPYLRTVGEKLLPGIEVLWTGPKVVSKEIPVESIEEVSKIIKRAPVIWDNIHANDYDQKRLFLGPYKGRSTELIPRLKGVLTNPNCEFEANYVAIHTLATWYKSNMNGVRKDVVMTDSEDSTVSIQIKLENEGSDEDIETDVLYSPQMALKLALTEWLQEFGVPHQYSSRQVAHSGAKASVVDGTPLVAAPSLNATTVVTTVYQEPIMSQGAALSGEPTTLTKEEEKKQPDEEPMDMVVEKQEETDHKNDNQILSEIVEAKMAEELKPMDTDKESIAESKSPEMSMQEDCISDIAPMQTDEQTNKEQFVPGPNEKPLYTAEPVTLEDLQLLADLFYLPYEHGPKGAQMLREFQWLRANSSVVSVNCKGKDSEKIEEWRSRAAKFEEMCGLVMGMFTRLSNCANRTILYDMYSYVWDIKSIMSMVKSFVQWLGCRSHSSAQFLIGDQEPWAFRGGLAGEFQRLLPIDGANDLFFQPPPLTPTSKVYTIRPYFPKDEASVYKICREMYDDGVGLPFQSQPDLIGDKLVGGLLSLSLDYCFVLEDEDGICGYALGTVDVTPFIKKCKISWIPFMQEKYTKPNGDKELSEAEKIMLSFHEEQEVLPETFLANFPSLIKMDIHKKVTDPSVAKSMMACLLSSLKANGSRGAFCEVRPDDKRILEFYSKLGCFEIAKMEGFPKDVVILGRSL
Assay: OGA cellular assay (ICC detection of O-GlcNAcylated proteins in HEK293 cells inducible for P301L mutant human Tau)
Assay type: cell-based
Conditions: HEK293, HEK293 cells inducible for P301L mutant human Tau, maximal effect; Thiamet G 200 uM as maximum
reportedMetric: Emax (%)

INSERT INTO assay_data (molecule, reportedmetric, valueobserved) VALUES
  ('Cc1cc(C2CCCN([C@H](C)c3ccc4c(n3)OCCO4)C2)nc(C)n1 (mixture of isomers)', 'Emax', 55),
  ('COc1cc(CN[C@H]2CCCN(C(C)c3ccc4c(n3)OCCO4)C2)cc(C)n1 (stereo partly shown)', 'Emax', 82),
  ('Cc1cc(OC[C@H]2CCCN([C@H](C)c3ccc4c(n3)OCCO4)C2)nc(C)n1 (mixture of isomers)', 'Emax', 66),
  ('Cc1cc([C@@H]2CCCN(C(C)c3nc4c(cc3F)OCCO4)C2)cc(C)n1 (single isomer, unassigned)', 'Emax', 80),
  ('COc1cc(OC2CCCN(C(C)c3ccc4c(n3)OCCO4)C2)cc(C)n1 (stereo not shown)', 'Emax', 57),
  ('Cc1cc(OC2CCCN(C(C)c3cc4c(cc3F)OCCO4)C2)cc(C(F)(F)F)n1 (stereo not shown)', 'Emax', 16),
  ('COc1cc(C[C@H]2CCCN(C(C)c3ccc4c(n3)OCCO4)C2)cc(C)n1 (mixture of isomers)', 'Emax', 69);
